// TGI lookup, one value per entry
- Tested on: SK-MEL-28 melanoma
- TEST SUMMARY: NCI tumour cell line growth inhibition, 48 h
ASSAY METRIC: TGI

COMPOUND	ASSAY METRIC	OBS VALUE
CCOC(=O)c1cn(CC)c2cc3c(cc2c1=O)SCS3	TGI	> 100 µM
CC1=NN(C(=O)c2nn(-c3ccc(Cl)cc3)cc2O)C(=O)C1	TGI	> 100 µM
CN(C)C(=S)SCC(N)=O	TGI	> 100 µM
O=C(O)CN=c1c2ccccc2n(O)c2ccccc12	TGI	> 100 µM
CC[C@H](C)[C@H]1NC(=O)[C@@H](NC(=O)[C@@H](CC(C)C)N(C)C(=O)C2CCCN2C(=O)[C@H](C)O)[C@@H](C)OC(=O)[C@H](Cc2ccccc2)N(C)C(=O)[C@@H]2CCCN2C(=O)[C@H](CC(C)C)NC(=O)[C@@H](C)C(=O)[C@H](C(C)C)OC(=O)C[C@@H]1O (some centres undefined)	TGI	0.00828 µM
COC(=O)c1nc(N)nc(C(=O)OC)c1C(=O)c1ccccc1	TGI	> 100 µM
O=c1[nH]cnc2c1ncn2CCCCO	TGI	> 100 µM
BrC1=CN2C[n+]3cc(Br)c4ccccc4c3N=C2c2ccccc21	TGI	6.7 µM
CCc1c2c(nc3ccc(OCc4ccc(B5OC(C)(C)C(C)(C)O5)cc4)cc13)-c1cc3c(c(=O)n1C2)COC(=O)[C@]3(O)CC	TGI	> 100 µM

These data points were gathered from PubChem BioAssay (NCI).
